target: hERG1 potassium channel (Homo sapiens); assay: in vitro; conditions: human
PROPERTY_MEASURED: inhibition at 300 sec, 0.08 µM (%)

>>> number("CC(C)NCC(O)c1ccc(NS(C)(=O)=O)cc1 (stereo not shown)")
20.4
>>> number("COc1nc(N)nc2c1ncn2C1O[C@H](COP(=O)(N[C@H](C)C(=O)OCC(C)(C)C)Oc2cccc3ccccc23)[C@@H](O)[C@@]1(C)O (stereo partly shown)")
-8.97
>>> number("Nc1nc2c(ncn2[C@@H]2O[C@H](CO)[C@@H](O)[C@H]2O)c(=O)[nH]1")
-3.46
>>> number("CC(=O)Oc1ccccc1C(=O)O")
-21

###

molecular target: hERG1 potassium channel (Homo sapiens); experiment: in vitro; conditions: human
PROPERTY_MEASURED: inhibition at 300 sec, 0.0016 µM

>>> result("O=c1[nH]c2ccccc2n1C1CCN(CCCC(c2ccc(F)cc2)c2ccc(F)cc2)CC1 [Pimozide]")
"4.56%"

###

molecular target: UniProt:Q12809; assay: hERG1 channel inhibition (IC50 determination) in mammalian cells, IonWorks whole-cell voltage-clamp; conditions: human
PROPERTY_MEASURED: inhibition at 300 sec, 0.4 µM (%)

>>> number("COc1nc(N)nc2c1ncn2C1O[C@H](COP(=O)(N[C@H](C)C(=O)OCC(C)(C)C)Oc2cccc3ccccc23)[C@@H](O)[C@@]1(C)O (stereo partly shown) [BMS-986094]")
-5.33
>>> number("CC(=O)Oc1ccccc1C(=O)O [Aspirin, acetyl salicylic acid]")
-5.88
>>> number("CC(C)NCC(O)c1ccc(NS(C)(=O)=O)cc1 (stereo not shown) [Sotalol]")
10.9
>>> number("Nc1nc2c(ncn2[C@@H]2O[C@H](CO)[C@@H](O)[C@H]2O)c(=O)[nH]1 [Guanosine, guanosine]")
26.3

###

Entries and their inhibition at 300 sec, 0.016 µM values follow.
biological target: UniProt:Q12809; assay: hERG1 channel inhibition (IC50 determination) in mammalian cells, IonWorks whole-cell voltage-clamp; settings: human
PROPERTY_MEASURED: inhibition at 300 sec, 0.016 µM (%)

>>> number("COc1nc(N)nc2c1ncn2C1O[C@H](COP(=O)(N[C@H](C)C(=O)OCC(C)(C)C)Oc2cccc3ccccc23)[C@@H](O)[C@@]1(C)O (stereo partly shown)")
-4.94
>>> number("CC(=O)Oc1ccccc1C(=O)O")
-3.09
>>> number("CC(C)NCC(O)c1ccc(NS(C)(=O)=O)cc1 (stereo not shown)")
-0.73
>>> number("Nc1nc2c(ncn2[C@@H]2O[C@H](CO)[C@@H](O)[C@H]2O)c(=O)[nH]1")
6.12

###

molecular target: hERG1 potassium channel (Homo sapiens, UniProt Q12809); experiment: in vitro; conditions: human
Sequence (Q12809 whole entry): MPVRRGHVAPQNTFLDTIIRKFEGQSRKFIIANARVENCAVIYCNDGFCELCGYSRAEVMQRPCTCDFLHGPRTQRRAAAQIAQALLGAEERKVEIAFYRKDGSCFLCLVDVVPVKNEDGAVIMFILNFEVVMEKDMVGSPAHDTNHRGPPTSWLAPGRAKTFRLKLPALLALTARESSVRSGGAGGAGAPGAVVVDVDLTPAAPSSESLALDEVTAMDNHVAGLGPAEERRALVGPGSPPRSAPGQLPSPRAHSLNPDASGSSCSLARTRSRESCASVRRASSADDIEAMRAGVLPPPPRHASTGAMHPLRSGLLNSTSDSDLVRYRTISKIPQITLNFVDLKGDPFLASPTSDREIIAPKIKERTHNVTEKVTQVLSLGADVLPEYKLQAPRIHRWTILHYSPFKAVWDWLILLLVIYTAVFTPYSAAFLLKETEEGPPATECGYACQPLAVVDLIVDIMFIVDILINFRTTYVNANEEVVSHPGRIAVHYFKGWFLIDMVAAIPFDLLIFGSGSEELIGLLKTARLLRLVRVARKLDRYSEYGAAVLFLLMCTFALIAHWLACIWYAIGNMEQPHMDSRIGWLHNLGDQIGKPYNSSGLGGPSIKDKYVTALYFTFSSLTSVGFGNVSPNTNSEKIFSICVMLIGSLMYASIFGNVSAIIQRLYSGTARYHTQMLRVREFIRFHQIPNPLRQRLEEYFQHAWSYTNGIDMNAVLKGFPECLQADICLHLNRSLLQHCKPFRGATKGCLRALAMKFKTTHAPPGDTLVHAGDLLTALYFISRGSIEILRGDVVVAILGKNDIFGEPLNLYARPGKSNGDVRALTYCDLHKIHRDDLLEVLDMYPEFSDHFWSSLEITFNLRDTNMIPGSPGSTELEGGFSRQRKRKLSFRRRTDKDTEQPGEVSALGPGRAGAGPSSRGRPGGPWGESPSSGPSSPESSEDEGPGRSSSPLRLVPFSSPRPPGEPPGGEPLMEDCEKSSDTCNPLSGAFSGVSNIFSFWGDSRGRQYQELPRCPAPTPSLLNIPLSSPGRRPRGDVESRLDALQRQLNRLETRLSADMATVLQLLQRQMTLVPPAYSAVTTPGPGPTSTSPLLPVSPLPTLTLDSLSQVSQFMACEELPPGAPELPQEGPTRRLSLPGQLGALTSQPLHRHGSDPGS
PROPERTY_MEASURED: inhibition at 300 sec, 0.008 µM (%)

>>> number("O=c1[nH]c2ccccc2n1C1CCN(CCCC(c2ccc(F)cc2)c2ccc(F)cc2)CC1 [Pimozide]")
5.6

###

target: hERG1 potassium channel (Homo sapiens); assay: in vitro; settings: human
Entries and their inhibition at 300 sec, 10 µM values follow.
PROPERTY_MEASURED: inhibition at 300 sec, 10 µM (%)

>>> number("CC(=O)Oc1ccccc1C(=O)O")
-0.546
>>> number("CC(C)NCC(O)c1ccc(NS(C)(=O)=O)cc1 (stereo not shown)")
0.95
>>> number("Nc1nc2c(ncn2[C@@H]2O[C@H](CO)[C@@H](O)[C@H]2O)c(=O)[nH]1")
5.54
>>> number("COc1nc(N)nc2c1ncn2C1O[C@H](COP(=O)(N[C@H](C)C(=O)OCC(C)(C)C)Oc2cccc3ccccc23)[C@@H](O)[C@@]1(C)O (stereo partly shown)")
23.3

###

molecular target: hERG channel (Homo sapiens); assay: Automated patch clamp (IonFlux) on AC10 cardiomyocytes stably expressing hERG
Sequence (Q12809 whole entry): as above
PROPERTY_MEASURED: IC50 (nM)

>>> number("COc1nc(N)nc2c1ncn2C1O[C@H](COP(=O)(N[C@H](C)C(=O)OCC(C)(C)C)Oc2cccc3ccccc23)[C@@H](O)[C@@]1(C)O (stereo partly drawn)")
266
>>> number("COc1nc(N)nc2c1ncn2[C@@H]1O[C@H](COP(=O)(N[C@@H](C)C(=O)OCC(C)(C)C)Oc2cccc3ccccc23)[C@@H](O)[C@@]1(C)O (stereo partly drawn)")
266
>>> number("CS(=O)(=O)c1ccc(C2=C(c3ccccc3)C(=O)OC2)cc1")
15000

###

Biological target: hERG1 potassium channel (Homo sapiens, UniProt Q12809)
Experiment: in vitro
Details: human
Method: Mammalian cells expressing the hERG1 potassium channel were dispensed into 384-well planar arrays and hERG tail-currents were measured by whole-cell voltage-clamping. […] The percent change in hERG current was calculated. […] Post-compound currents were then expressed as a percentage of pre-compound currents and plotted against concentration for each compound. Where concentration-dependent inhibition is observed, the data are fitted to the following equation and an IC50 value calculated: […]
Entries and their inhibition at 300 sec, 0.0032 µM values follow.
PROPERTY_MEASURED: inhibition at 300 sec, 0.0032 µM (%)

>>> number("CC(=O)Oc1ccccc1C(=O)O [Aspirin, acetyl salicylic acid]")
-2.97
>>> number("COc1nc(N)nc2c1ncn2C1O[C@H](COP(=O)(N[C@H](C)C(=O)OCC(C)(C)C)Oc2cccc3ccccc23)[C@@H](O)[C@@]1(C)O (stereo partly shown) [BMS-986094]")
18.2
>>> number("Nc1nc2c(ncn2[C@@H]2O[C@H](CO)[C@@H](O)[C@H]2O)c(=O)[nH]1 [Guanosine, guanosine]")
0.711
>>> number("CC(C)NCC(O)c1ccc(NS(C)(=O)=O)cc1 (stereo not shown) [Sotalol]")
1.69
